- tested-on: antithrombin III (plasma purified human AT-III), used as the AT-III/unfractionated heparin complex
- method-summary: K0.5 ratio to Catalyst Biosciences WT FIXa, AT-III/UFH inhibition assay
quantity-measured: K0.5-mut/K0.5-wt
Form field: result (number plus unit)

Worked cases, K0.5-mut/K0.5-wt given:
{"protein": "FIXa-D104N/K106S/R318Y/R338E/E410N (protein) chain 1: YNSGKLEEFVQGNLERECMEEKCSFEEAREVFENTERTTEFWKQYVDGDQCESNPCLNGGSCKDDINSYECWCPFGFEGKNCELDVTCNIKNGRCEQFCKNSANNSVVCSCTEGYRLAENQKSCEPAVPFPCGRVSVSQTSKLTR chain 2: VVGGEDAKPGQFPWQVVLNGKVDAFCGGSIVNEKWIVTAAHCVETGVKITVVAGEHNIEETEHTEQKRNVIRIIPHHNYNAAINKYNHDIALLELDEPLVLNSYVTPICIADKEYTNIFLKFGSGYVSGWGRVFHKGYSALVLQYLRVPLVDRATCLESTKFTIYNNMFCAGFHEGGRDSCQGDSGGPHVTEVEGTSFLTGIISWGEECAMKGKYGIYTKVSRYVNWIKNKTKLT", "test-value": "327 fold"}
{"protein": "FIXa-K228N/R338E/R403E (protein) chain 1: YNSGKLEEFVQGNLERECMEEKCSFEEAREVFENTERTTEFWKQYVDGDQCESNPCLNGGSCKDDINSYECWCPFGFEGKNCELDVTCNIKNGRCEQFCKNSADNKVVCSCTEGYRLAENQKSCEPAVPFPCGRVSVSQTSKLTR chain 2: VVGGEDAKPGQFPWQVVLNGKVDAFCGGSIVNEKWIVTAAHCVETGVNITVVAGEHNIEETEHTEQKRNVIRIIPHHNYNAAINKYNHDIALLELDEPLVLNSYVTPICIADKEYTNIFLKFGSGYVSGWGRVFHKGRSALVLQYLRVPLVDRATCLESTKFTIYNNMFCAGFHEGGRDSCQGDSGGPHVTEVEGTSFLTGIISWGEECAMKGKYGIYTKVSEYVNWIKEKTKLT", "test-value": "86.8 fold"}

Briefly, K0.5-mut/K0.5-wt measured for FIXa-R338E/R403E/E410N (protein) chain 1: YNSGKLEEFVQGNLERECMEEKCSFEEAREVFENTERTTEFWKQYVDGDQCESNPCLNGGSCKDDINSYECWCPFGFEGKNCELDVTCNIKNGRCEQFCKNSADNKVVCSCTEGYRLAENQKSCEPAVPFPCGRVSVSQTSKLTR chain 2: VVGGEDAKPGQFPWQVVLNGKVDAFCGGSIVNEKWIVTAAHCVETGVKITVVAGEHNIEETEHTEQKRNVIRIIPHHNYNAAINKYNHDIALLELDEPLVLNSYVTPICIADKEYTNIFLKFGSGYVSGWGRVFHKGRSALVLQYLRVPLVDRATCLESTKFTIYNNMFCAGFHEGGRDSCQGDSGGPHVTEVEGTSFLTGIISWGEECAMKGKYGIYTKVSEYVNWIKNKTKLT : 122 fold
